Origin of measurements: ChEMBL document CHEMBL1147476

# TARGET OR TEST SYSTEM: UniProt:P16444
# Sequence (P16444 whole entry): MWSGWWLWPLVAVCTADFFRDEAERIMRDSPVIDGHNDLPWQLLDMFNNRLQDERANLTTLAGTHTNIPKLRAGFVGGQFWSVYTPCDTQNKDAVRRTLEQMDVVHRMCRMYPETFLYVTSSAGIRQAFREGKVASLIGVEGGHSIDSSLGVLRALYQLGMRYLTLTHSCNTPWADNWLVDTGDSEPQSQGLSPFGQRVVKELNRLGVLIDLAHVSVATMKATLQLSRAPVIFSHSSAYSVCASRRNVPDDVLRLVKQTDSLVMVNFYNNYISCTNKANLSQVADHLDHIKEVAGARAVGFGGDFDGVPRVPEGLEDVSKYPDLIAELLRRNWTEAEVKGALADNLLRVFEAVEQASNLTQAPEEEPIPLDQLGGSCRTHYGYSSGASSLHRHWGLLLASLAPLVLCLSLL
# TEST NAME: Concentration required to inhibit renal dipeptidase (RDP) by 50% in crude lysates prepared from human colon cancer
pIC50: −log10 of the molar value.
// reported pIC50 per item
VALUE KIND: pIC50

compound="NC(CC1CCCCC1)P(=O)(O)C/C(=C\\c1ccc(F)c(Br)c1)C(=O)O (centres undefined)" target_or_test_system=UniProt:P16444 meas_value=7.40
compound="Nc1ccc(/C=C(/CP(=O)(O)C(N)CC2CCCCC2)C(=O)O)cc1 (centres undefined)" target_or_test_system=UniProt:P16444 meas_value=6.82
compound="NC(CC1CCCCC1)P(=O)(O)C/C(=C/c1ccc(Cl)c(Cl)c1)C(=O)O (centres undefined)" target_or_test_system=UniProt:P16444 meas_value=6.70
compound="NC(CC1CCCCC1)P(=O)(O)C/C(=C/c1ccc(I)cc1)C(=O)O (centres undefined)" target_or_test_system=UniProt:P16444 meas_value=7.60
compound="NC(CC1CCCCC1)P(=O)(O)C/C(=C/c1ccc(F)cc1)C(=O)O (centres undefined)" target_or_test_system=UniProt:P16444 meas_value=7.82
compound="NC(CC1CCCCC1)P(=O)(O)C/C(=C\\c1ccc(Cl)c(Cl)c1)C(=O)O (centres undefined)" target_or_test_system=UniProt:P16444 meas_value=7.70
compound="NC(CC1CCCCC1)P(=O)(O)C/C(=C/c1ccc(Br)cc1)C(=O)O (centres undefined)" target_or_test_system=UniProt:P16444 meas_value=7.52
compound="NC(CC1CCCCC1)P(=O)(O)C/C(=C\\c1ccc(F)c(Cl)c1)C(=O)O (centres undefined)" target_or_test_system=UniProt:P16444 meas_value=7.52
compound="NC(CC1CCCCC1)P(=O)(O)C/C(=C\\c1ccc(I)cc1)C(=O)O (centres undefined)" target_or_test_system=UniProt:P16444 meas_value=8.10
compound="NC(CC1CCCCC1)P(=O)(O)C/C(=C/c1ccccc1I)C(=O)O (centres undefined)" target_or_test_system=UniProt:P16444 meas_value=6.00
compound="NC(CC1CCCCC1)P(=O)(O)C/C(=C\\c1ccc(F)cc1)C(=O)O (centres undefined)" target_or_test_system=UniProt:P16444 meas_value=8.30
compound="NC(CC1CCCCC1)P(=O)(O)C/C(=C\\c1cccc(I)c1)C(=O)O (centres undefined)" target_or_test_system=UniProt:P16444 meas_value=7.35
compound="NC(CC1CCCCC1)P(=O)(O)C/C(=C\\c1ccccc1I)C(=O)O (centres undefined)" target_or_test_system=UniProt:P16444 meas_value=7.00
compound="NC(CC1CCCCC1)P(=O)(O)C/C(=C\\c1ccc(Br)cc1)C(=O)O (centres undefined)" target_or_test_system=UniProt:P16444 meas_value=8.22
compound="NC(CC1CCCCC1)P(=O)(O)C/C(=C/c1ccc(C(F)(F)F)cc1)C(=O)O (centres undefined)" target_or_test_system=UniProt:P16444 meas_value=6.70
compound="NC(CC1CCCCC1)P(=O)(O)C/C(=C/c1cccc(I)c1)C(=O)O (centres undefined)" target_or_test_system=UniProt:P16444 meas_value=6.60
compound="NC(CC1CCCCC1)P(=O)(O)C/C(=C/c1ccc(F)c(Br)c1)C(=O)O (centres undefined)" target_or_test_system=UniProt:P16444 meas_value=5.52
compound="NC(CC1CCCCC1)P(=O)(O)C/C(=C/c1ccc(F)c(Cl)c1)C(=O)O (centres undefined)" target_or_test_system=UniProt:P16444 meas_value=6.46
compound="Nc1ccc(/C=C(\\CP(=O)(O)C(N)CC2CCCCC2)C(=O)O)cc1 (centres undefined)" target_or_test_system=UniProt:P16444 meas_value=7.15
